# Test system: UniProt:P03372
# Sequence (P03372 whole entry): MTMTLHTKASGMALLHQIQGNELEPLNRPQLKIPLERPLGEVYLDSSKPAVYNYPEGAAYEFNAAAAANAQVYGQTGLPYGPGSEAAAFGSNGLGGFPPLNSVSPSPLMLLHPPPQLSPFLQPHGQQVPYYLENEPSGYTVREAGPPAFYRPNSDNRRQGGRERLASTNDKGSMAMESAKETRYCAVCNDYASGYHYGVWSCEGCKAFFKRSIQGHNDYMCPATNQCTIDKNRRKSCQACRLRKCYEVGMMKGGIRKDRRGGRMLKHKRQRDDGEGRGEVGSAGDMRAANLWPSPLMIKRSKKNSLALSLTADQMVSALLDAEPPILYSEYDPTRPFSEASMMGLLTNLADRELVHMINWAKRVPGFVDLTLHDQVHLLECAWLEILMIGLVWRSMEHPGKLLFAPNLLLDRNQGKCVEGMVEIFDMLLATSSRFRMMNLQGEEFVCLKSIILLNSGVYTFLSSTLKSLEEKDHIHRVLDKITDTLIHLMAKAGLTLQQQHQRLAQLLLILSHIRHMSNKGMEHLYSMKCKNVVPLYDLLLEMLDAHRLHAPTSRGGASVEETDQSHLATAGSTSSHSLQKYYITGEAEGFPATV
Active and inactive are the calls of the source.
Listed here: items and their measured IC50.
Readout type: IC50

Smiles code	Readout type	Experimental result
Cn1nc([N+](=O)[O-])c2c(-c3nc4ccccc4s3)c(N)n(C3CCCCC3)c2c1=O	IC50	4.98 µM (active)
O=C(NCc1ccco1)c1cc2ccc(O)cc2oc1=O	IC50	14.3 µM (active)
CCn1c(SCC(=O)Nc2ccc3c(c2)oc2ccccc23)nnc1-c1ccc(N)cc1	IC50	11.7 µM (active)
O=C(Nc1ccc2oc(-c3ccccc3F)nc2c1)c1cncc(Br)c1	IC50	15.5 µM (active)
O=C(CCC(=O)c1cccs1)Nc1nnc(C2CC2)s1	IC50	> 50 µM (not active)

* * *

# Test system: Zinc finger protein mex-5 (Caenorhabditis elegans)
# Sequence (Q9XUB2 whole entry): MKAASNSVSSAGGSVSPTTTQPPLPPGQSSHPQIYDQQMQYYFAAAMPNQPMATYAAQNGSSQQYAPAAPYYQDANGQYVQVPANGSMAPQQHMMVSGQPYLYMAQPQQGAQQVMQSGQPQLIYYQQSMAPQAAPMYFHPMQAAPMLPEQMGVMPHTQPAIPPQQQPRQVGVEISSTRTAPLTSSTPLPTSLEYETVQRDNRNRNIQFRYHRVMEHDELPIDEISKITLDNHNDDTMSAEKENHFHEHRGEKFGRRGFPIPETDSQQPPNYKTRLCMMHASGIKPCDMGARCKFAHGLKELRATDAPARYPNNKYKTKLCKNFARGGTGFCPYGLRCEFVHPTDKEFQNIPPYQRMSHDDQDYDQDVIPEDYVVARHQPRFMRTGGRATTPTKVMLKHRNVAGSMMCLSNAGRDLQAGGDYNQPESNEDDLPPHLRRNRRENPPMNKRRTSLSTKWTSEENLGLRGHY
# Measurement notes: potency of MEX-5 RNA-binding blockers – biochemical, C. elegans, fluorescence polarization, dose response (AID 1960)
The source made the active and inactive calls.

Compound	EC50
O=C(O)c1cccc(-n2cccc2/C=C2\NC(=O)N(Cc3ccc(F)cc3)C2=O)c1	> 150 µM (not active)
Cc1ccccc1Nc1nc(Cl)c(C=O)s1	> 300 µM (not active)
Nc1ccc2[nH]c(-c3cccc(-c4nc5cc(N)ccc5[nH]4)n3)nc2c1	> 300 µM (not active)
O=C(O)CSc1cc(NS(=O)(=O)c2ccc(Cl)cc2)c2ccccc2c1O	6.3 µM (active)
CC1(C)c2[nH]c3ccccc3c2C[C@@H]2C(=O)N(c3ccc(F)cc3F)C(=O)N21	46.8 µM (active)
Cn1c(O)nc2cc(Cl)cnc21	24.8 µM (active)
CC1(OC(=O)c2cnc3ccccc3n2)C(=O)C=C2C=C(C3CC3)OC=C2C1=O (centres undefined)	> 300 µM (not active)
CCC(=O)OC1(C)C(=O)C=C2C=C(c3ccc(C#N)cc3)OC=C2C1=O (centres undefined)	40.8 µM (active)
CC1=NN(C(N)=S)C(=O)C1N=Nc1cccc(C(=O)O)c1 (centres undefined)	22.7 µM (active)

* * *

Listed next: entries and their corresponding IC50.
# Test system: Nonstructural protein 1 (Influenza A virus, UniProt Q194T2)
# Sequence (Q194T2 whole entry): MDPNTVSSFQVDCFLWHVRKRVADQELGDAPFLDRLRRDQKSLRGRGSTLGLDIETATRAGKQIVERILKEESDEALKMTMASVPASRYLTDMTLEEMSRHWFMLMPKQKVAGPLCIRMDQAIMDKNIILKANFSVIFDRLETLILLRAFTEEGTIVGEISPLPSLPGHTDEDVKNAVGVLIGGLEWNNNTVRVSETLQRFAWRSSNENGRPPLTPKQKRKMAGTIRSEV
# Type: functional, Influenza A virus (A/California/07/2009(H1N1))
Calls of active or inactive are those of the source.
Readout type: IC50

Smiles code	Readout type	Experimental result
Cc1cc(C(=O)N/N=C/c2cc([N+](=O)[O-])ccc2O)c2ccccc2n1	IC50	5.29 µM (active)
Cc1ccc(C)c(N=Nc2nc3ccccc3n2C)c1	IC50	14.3 µM (active)
CN1CCN(C(=O)c2cccc(-c3cc(O)c4ncccc4c3)c2)CC1	IC50	11.4 µM (active)
CN1CCN(c2cc(N3CCCCCC3)c(F)cc2[N+](=O)[O-])CC1	IC50	> 100 µM (active)
Cc1cccc(N=Nc2ccc(N(C)C)cc2)c1	IC50	31.6 µM (active)
Cc1ccc(SC2=C(N(C)C)C(=O)c3ccccc3C2=O)cc1	IC50	8.5 µM (active)
Oc1cccc2ccc(Nc3ccccn3)nc12	IC50	2.35 µM (active)

* * *

# Measurement notes: NIH3T3 cell viability loss – ATP luminescence, mouse fibroblasts, counter-screen, dose response (AID 2010);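 further: cells exposed to compound for about 90 hours before reading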
# Assay type: functional, cell-based
The source made the active and inactive calls.
Readout type: EC50

Compound	Readout type	Experimental result
c1ccc(-c2ccc(-n3ccnc3)cc2)cc1	EC50	> 30 µM (not active)
C=CCc1cccc(/C=N/NC(=O)C(C)Nc2cccc(C)c2)c1O (stereo not drawn)	EC50	> 30 µM (not active)
Cc1ccc(NC(=O)CN(c2ccc(Cl)cc2)S(=O)(=O)c2cc([N+](=O)[O-])ccc2Cl)c(C)c1	EC50	> 60 µM (inconclusive)
Cc1ccc2nc3c(c(Nc4ccc(O)cc4)c2c1)CCC3	EC50	8.88 µM (active)
Fc1ccc(Cn2nnnc2C(c2ccc(Cl)cc2)N2CC=C(c3ccc(F)cc3)CC2)cc1 (stereo not drawn)	EC50	> 60 µM (not active)
Cc1cc(O)ccc1N1C(=O)c2cccc3cc([N+](=O)[O-])cc(c23)C1=O	EC50	> 60 µM (not active)
CSCCC(=O)N(C)CC1CCCN(CCc2cccc(C(F)(F)F)c2)C1 (stereo not drawn)	EC50	> 60 µM (not active)
Cc1cc(C)n(-c2nc(SCCN(C)C)c3c4c(sc3n2)COC(C)(C)C4)n1	EC50	> 30 µM (not active)

* * *

# Test system: Short transient receptor potential channel 4 (Mus musculus)
# Sequence (Q9QUQ5 whole entry): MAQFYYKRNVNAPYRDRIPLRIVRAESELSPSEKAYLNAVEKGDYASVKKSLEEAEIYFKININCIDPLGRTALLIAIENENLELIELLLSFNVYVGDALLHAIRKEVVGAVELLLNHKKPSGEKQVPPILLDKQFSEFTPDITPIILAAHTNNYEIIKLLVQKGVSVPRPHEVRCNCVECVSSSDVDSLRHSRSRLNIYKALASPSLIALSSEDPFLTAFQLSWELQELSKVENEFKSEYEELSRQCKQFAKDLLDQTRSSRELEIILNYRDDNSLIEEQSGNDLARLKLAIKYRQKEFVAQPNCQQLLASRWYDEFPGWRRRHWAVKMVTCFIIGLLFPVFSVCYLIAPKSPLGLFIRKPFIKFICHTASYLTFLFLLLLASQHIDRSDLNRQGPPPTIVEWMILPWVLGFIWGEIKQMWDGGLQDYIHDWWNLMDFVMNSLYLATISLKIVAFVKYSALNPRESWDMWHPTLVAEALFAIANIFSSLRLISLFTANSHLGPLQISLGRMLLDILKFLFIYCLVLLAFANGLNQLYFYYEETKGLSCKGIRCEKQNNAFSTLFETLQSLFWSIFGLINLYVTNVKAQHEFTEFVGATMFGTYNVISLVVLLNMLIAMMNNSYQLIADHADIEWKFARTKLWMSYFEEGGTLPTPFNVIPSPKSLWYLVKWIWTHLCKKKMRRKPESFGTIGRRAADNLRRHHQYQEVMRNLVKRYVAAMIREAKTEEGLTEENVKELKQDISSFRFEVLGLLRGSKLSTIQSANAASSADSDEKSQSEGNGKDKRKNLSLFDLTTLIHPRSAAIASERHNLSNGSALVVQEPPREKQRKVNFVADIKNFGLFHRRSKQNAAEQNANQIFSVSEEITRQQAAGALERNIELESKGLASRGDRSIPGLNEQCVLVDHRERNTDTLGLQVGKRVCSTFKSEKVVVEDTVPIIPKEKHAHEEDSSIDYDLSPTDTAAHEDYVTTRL
# Measurement notes: block of DAMGO-driven TRPC4 calcium entry – cell-based, HEK293 TRPC4/mu-opioid, Fluo-4 calcium, dose response (AID 434942);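 further: potency of inhibitors blocking the TRPC4 calcium response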
# Type: functional
The source made the active and inactive calls.

Molecule	EC50
Cc1nn(-c2ccccc2)c(Cl)c1CN(C(=O)CCl)c1ccc(Cl)cc1	0.237 µM (active)
O=C(c1cccc(C(F)(F)F)c1)C1CCCN(Cc2cccn2-c2ccccn2)C1 (stereo not given)	5.96 µM (active)
COc1ccc(OC)c(Nc2cc(-c3ccccc3)nc(N)n2)c1	4.73 µM (active)
OC1(c2ccc(F)cc2)CCN(Cc2ccccc2)C1 (stereo not given)	2.99 µM (active)
CCCCn1c(NCc2ccc(N(C)C)cc2)nc2ccccc21	1.5 µM (active)

* * *

# Test system: Calpain-2 catalytic subunit (Sus scrofa)
# Sequence (P43367 whole entry): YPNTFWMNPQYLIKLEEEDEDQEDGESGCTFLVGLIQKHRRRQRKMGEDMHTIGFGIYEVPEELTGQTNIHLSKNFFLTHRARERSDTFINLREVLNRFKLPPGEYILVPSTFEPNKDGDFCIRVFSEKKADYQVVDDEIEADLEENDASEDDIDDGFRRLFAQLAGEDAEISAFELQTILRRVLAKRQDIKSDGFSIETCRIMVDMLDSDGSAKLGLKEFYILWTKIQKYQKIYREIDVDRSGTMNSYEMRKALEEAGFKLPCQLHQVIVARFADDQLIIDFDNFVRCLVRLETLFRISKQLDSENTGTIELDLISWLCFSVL
# Measurement notes: m-calpain protease blockers, concentration series – biochemical, fluorogenic peptide substrate, dose response (AID 1420)
# Assay type: functional
Readout type: IC50

Compound	Experimental result
COc1ccc(-c2cc(C(=O)NCc3cn(C)nc3C)c3ccccc3n2)cc1OC	> 50 µM (not active)
COc1cccc(NC(=O)c2ccc(NCCCN3CC(C)CC(C)C3)c([N+](=O)[O-])c2)c1 (centres undefined)	3.92 µM (not active)
Cc1ccc(NC(=O)c2cc(N3C(=O)C4CCCCC4C3=O)ccc2N2CCOCC2)cc1 (centres undefined)	14.9 µM (not active)
Cc1sc2c(c1C)c(=O)n(-c1ccc(F)cc1)c(=O)n2CC(=O)NCc1ccco1	25.1 µM (not active)
